- measuredTarget: AsPC-1 HiBiT-KRASG12D (Homo sapiens, UniProt P01116, G12D)
- Construct: insert the HiBiT tag onto the N-terminus of one or more of the endogenous KRAS alleles; endogenous in cells; host or cells: AsPC-1 (ATCC CRL-1682), CRISPR-Cas9 knock-in clone, one tagged allele
- Sequence (P01116 1-188 isoform P01116-2 G12D): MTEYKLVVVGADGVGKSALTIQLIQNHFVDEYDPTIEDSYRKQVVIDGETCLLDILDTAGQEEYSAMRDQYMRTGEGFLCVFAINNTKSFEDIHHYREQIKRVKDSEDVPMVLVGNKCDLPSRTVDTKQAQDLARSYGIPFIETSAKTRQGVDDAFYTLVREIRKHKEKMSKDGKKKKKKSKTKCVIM
- assayText: HiBiT degradation assay (G12D), AsPC-1 HiBiT-KRASG12D cells
- Type: cell-based
- measurementSetup: AsPC-1 HiBiT-KRASG12D cells, 24 hours treatment, HiBiT luminescence
observedProperty: DC50

# input Assign DC50 to the following record: CCc1cccc2cc(O)cc(-c3ncc4c(N5CC6CCC(C5)N6)nc(OCCN5CC[C@@H]6[C@@H](CCN6c6cc([C@H](C(=O)N7C[C@H](O)C[C@H]7C(=O)N[C@@H](C)c7ccc(-c8scnc8C)cc7)C(C)C)on6)C5)nc4c3F)c12 (relative stereo)
# output < 600 nM

# input Assign DC50 to the following record: `C#Cc1c(F)ccc2cc(O)cc(-c3ncc4c(N5CC6CCC(C5)N6)nc(OCCN5CCC(F)(CN6CCN(c7cc([C@H](C(=O)N8C[C@H](O)C[C@H]8C(=O)N[C@@H](C)c8ccc(-c9scnc9C)cc8)C(C)C)on7)CC6)CC5)nc4c3F)c12`
# output < 600 nM

====

# maps each entry to its Dmax
- measuredTarget: AsPC-1 HiBiT-KRASG12D (Homo sapiens, UniProt P01116, G12D)
- Construct: insert the HiBiT tag onto the N-terminus of one or more of the endogenous KRAS alleles; endogenous in cells; host or cells: AsPC-1 (ATCC CRL-1682), CRISPR-Cas9 knock-in clone, one tagged allele
- assayText: HiBiT degradation assay (G12D), AsPC-1 HiBiT-KRASG12D cells
- Type: cell-based
- measurementSetup: ASPC1, AsPC-1 HiBiT-KRASG12D cells, 24 hours treatment, maximum degradation observed

compound	Dmax
CCc1cccc2cc(O)cc(-c3ncc4c(N5CC6CCC(C5)N6)nc(OC[C@]56CCCN5[C@H](COC(=O)N5CCN(c7cc([C@H](C(=O)N8C[C@H](O)C[C@H]8C(=O)N[C@@H](C)c8ccc(-c9scnc9C)cc8)C(C)C)on7)[C@@H](C)C5)CC6)nc4c3F)c12 [Compound 123]	80 to 100%

# input Assign Dmax to the following record: CCc1cccc2cc(O)cc(-c3ncc4c(N5CC6CCC(C5)N6)nc(OCCN5CCC(F)(CN6CCN(c7cc([C@H](C(=O)N8C[C@H](O)C[C@H]8C(=O)N[C@@H](C)c8ccc(-c9scnc9C)cc8)C(C)C)on7)C[C@H]6C)CC5)nc4c3F)c12 [Compound 200]
# output 60 to 80%

====

- measuredTarget: AsPC-1 HiBiT-KRASG12D (Homo sapiens, UniProt P01116, G12D)
- Construct: insert the HiBiT tag onto the N-terminus of one or more of the endogenous KRAS alleles; endogenous in cells; host or cells: AsPC-1 (ATCC CRL-1682), CRISPR-Cas9 knock-in clone, one tagged allele
- assayText: HiBiT degradation assay (G12D), AsPC-1 HiBiT-KRASG12D cells
- Format: cell-based
- measurementSetup: AsPC-1 HiBiT-KRASG12D cells, 24 hours treatment, HiBiT luminescence
# maps each entry to its DC50

Worked examples follow.
compound	DC50
CCc1cccc2cc(O)cc(-c3ncc4c(N5CC6CCC(C5)N6)nc(OCCN5CCC(CC6CCN(c7cc(C(C(=O)N8C[C@H](O)C[C@H]8C(=O)N[C@@H](C)c8ccc(-c9scnc9C)cc8)C(C)C)on7)CC6)CC5)nc4c3F)c12 (single isomer, unassigned) [Compound 321]	600 to 1000 nM
Cc1ncsc1-c1ccc([C@H](C)NC(=O)[C@@H]2C[C@@H](O)CN2C(=O)[C@H](c2cc(OC[C@@H]3CC[C@]4(COc5nc(N6CC7CCC(C6)N7)c6cnc(-c7cccc8ccc(F)c(F)c78)c(F)c6n5)CCCN34)no2)C(C)C)cc1 [Compound 62]	> 3000 nM
CCc1cccc2cc(O)cc(-c3ncc4c(N5CCCCCC5)nc(OC[C@]56CCCN5[C@H](COC(=O)N5CCN(c7cc([C@H](C(=O)N8C[C@H](O)C[C@H]8C(=O)N[C@@H](C)c8ccc(-c9scnc9C)cc8)C(C)C)on7)[C@H](C)C5)CC6)nc4c3F)c12 [Compound 227]	< 600 nM
CCc1cccc2cc(O)cc(-c3ncc4c(N5CC6CCC(C5)N6)nc(OCCN5CCC(CC6CN(c7cnc(C(=O)N[C@H](C(=O)N8C[C@H](O)C[C@H]8C(=O)N[C@@H](C)c8ccc(-c9scnc9C)cc8)C(C)(C)C)cn7)C6)CC5)nc4c3F)c12 [Compound 279]	< 600 nM
CCc1cccc2cc(O)cc(-c3ncc4c(N5CC6CCC(C5)N6)nc(OCCN5CCC(CCOc6cc([C@H](C(=O)N7C[C@H](O)C[C@H]7C(=O)N[C@@H](C)c7ccc(-c8scnc8C)cc7)C(C)C)on6)CC5)nc4c3F)c12 [Compound 249]	< 600 nM
CCc1cccc2cc(O)cc(-c3ncc4c(N5CC6CCC(C5)N6)nc(OC[C@@]56CCCN5[C@H](COC(=O)NCc5cc([C@H](C(=O)N7C[C@H](O)C[C@H]7C(=O)N[C@@H](C)c7ccc(-c8scnc8C)cc7)C(C)C)on5)CC6)nc4c3F)c12 [Compound 104]	< 600 nM
Cc1ncsc1-c1ccc([C@H](C)NC(=O)[C@@H]2C[C@@H](O)CN2C(=O)[C@@H](c2cc(OCC3CCN(CCOc4nc(N5CC6CCC(C5)N6)c5cnc(-c6cc(O)cc7cccc(Cl)c67)c(F)c5n4)CC3)no2)C(C)C)cc1 [Compound 40]	< 600 nM

# input Assign DC50 to the following record: CCc1cccc2cc(O)cc(-c3ncc4c(N5CC6CCC(C5)N6)nc(OCCN5C[C@@H]6CN(c7cc(C(C(=O)N8C[C@H](O)C[C@H]8C(=O)N[C@@H](C)c8ccc(-c9scnc9C)cc8)C(C)C)on7)C[C@@H]6C5)nc4c3F)c12 (single isomer, unassigned) [Compound 79]
# output < 600 nM

====

- measuredTarget: AsPC-1 HiBiT-KRASG12D (Homo sapiens, UniProt P01116, G12D)
- Construct: insert the HiBiT tag onto the N-terminus of one or more of the endogenous KRAS alleles; endogenous in cells; host or cells: AsPC-1 (ATCC CRL-1682), CRISPR-Cas9 knock-in clone, one tagged allele
- assayText: HiBiT degradation assay (G12D), AsPC-1 HiBiT-KRASG12D cells
- Assay type: cell-based
- measurementSetup: ASPC1, AsPC-1 HiBiT-KRASG12D cells, 24 hours treatment, maximum degradation observed
# maps each entry to its Dmax

# input Assign Dmax to the following record: CCc1cccc2cc(O)cc(-c3ncc4c(N5CC6CCC(C5)N6)nc(OCCN5CC[C@H]6[C@H](CCN6c6cc([C@@H](C(=O)N7C[C@H](O)C[C@H]7C(=O)N[C@@H](C)c7ccc(-c8scnc8C)cc7)C(C)C)on6)C5)nc4c3F)c12 (relative stereo)
# output 60 to 80%

# input Assign Dmax to the following record: `CCc1cccc2cc(O)cc(-c3ncc4c(N5CC6CCC(C5)N6)nc(OCCN5CCC(CN6CCN(c7cc([C@H](C(=O)N8C[C@H](O)C[C@H]8C(=O)N[C@@H](C)c8ccc(-c9ccnn9C)cc8)C(C)C)on7)CC6)CC5)nc4c3F)c12`
# output 80 to 100%

# input Assign Dmax to the following record: CCc1cccc2cc(O)cc(-c3ncc4c(N5CCCCCC5)nc(OC[C@@]56CCCN5[C@H](COc5cc([C@H](C(=O)N7C[C@H](O)C[C@H]7C(=O)N[C@@H](C)c7ccc(-c8scnc8C)cc7)C(C)C)on5)CC6)nc4c3F)c12 (single isomer, unassigned)
# output 80 to 100%

# input Assign Dmax to the following record: `CCc1cccc2cc(O)cc(-c3ncc4c(N5C[C@H]6CC[C@@H](C5)N6)nc(OCCN5CCC(C)(CN6CCN(c7cc([C@@H](C(=O)N8C[C@H](O)C[C@H]8C(=O)N[C@@H](C)c8ccc(-c9scnc9C)cc8)C(C)C)on7)CC6)CC5)nc4c3F)c12`
# output 20 to 60%

# input Assign Dmax to the following record: `CCc1cccc2cc(O)cc(-c3ncc4c(N5C[C@H]6CC[C@@H](C5)N6)nc(OC[C@@H]5CC[C@@H](COC(=O)N6CCC(Oc7cc([C@@H](C(=O)N8C[C@H](O)C[C@H]8C(=O)N[C@@H](C)c8ccc(-c9scnc9C)cc8)C(C)C)on7)CC6)N5C)nc4c3F)c12`
# output 20 to 60%

# input Assign Dmax to the following record: `C#Cc1c(F)ccc2cc(O)cc(-c3ncc4c(N5CC6CCC(C5)N6)nc(OC[C@]56CCCN5[C@H](COc5cc([C@H](C(=O)N7C[C@H](O)C[C@H]7C(=O)N[C@@H](C)c7ccc(-c8scnc8C)cc7)C(C)C)on5)CC6)nc4c3F)c12`
# output 80 to 100%

# input Assign Dmax to the following record: `C#Cc1c(F)ccc2cccc(-c3ncc4c(N5CC6CCC(C5)N6)nc(OC[C@]56CCCN5[C@H](COc5cc([C@H](C(=O)N7C[C@H](O)C[C@H]7C(=O)N[C@@H](C)c7ccc(-c8scnc8C)cc7)C(C)C)on5)CC6)nc4c3F)c12`
# output 20 to 60%

# input Assign Dmax to the following record: `CCc1cccc2cc(O)cc(-c3ncc4c(N5CC6CCC(C5)N6)nc(OCCN5CCC(CN6CC7(C6)CN(c6cc([C@H](C(=O)N8C[C@H](O)C[C@H]8C(=O)N[C@@H](C)c8ccc(-c9scnc9C)cc8)C(C)C)on6)C7)CC5)nc4c3F)c12`
# output 80 to 100%
